// each record: one item and its Ki for Bromodomain-containing protein 4 (Homo sapiens)
metricName: Ki (µM)

{"compound": "Cc1[nH]c(-c2cccc3ccccc23)c2c1C(=O)CCC2", "metricName": "Ki", "measured": 19.7}
{"compound": "Cc1[nH]c(-c2ccccc2CN2C(=O)c3ccccc3C2=O)c2c1C(=O)CCC2", "metricName": "Ki", "measured": 10.4}
{"compound": "Cc1[nH]c(-c2ccccc2Oc2ccccc2)c2c1C(=O)CC(CC(C)C)C2 (stereo not drawn)", "metricName": "Ki", "measured": 22.2}
